target.of.assay: Delta-type opioid receptor (Homo sapiens)
Sequence (P41143 whole entry): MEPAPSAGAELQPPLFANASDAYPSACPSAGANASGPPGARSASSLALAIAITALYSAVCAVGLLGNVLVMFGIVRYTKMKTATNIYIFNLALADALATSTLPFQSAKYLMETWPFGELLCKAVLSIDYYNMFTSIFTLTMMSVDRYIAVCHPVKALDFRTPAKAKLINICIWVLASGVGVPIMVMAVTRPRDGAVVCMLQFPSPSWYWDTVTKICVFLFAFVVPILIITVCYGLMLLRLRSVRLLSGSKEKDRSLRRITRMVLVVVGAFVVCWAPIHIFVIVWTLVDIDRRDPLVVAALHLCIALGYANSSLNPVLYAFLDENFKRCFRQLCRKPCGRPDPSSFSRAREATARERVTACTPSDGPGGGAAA
assay.overview: Displacement of [125I]deltorphin 2 from human recombinant delta opioid receptor expressed in HEK cell membranes
Set-up: species or system HEK293
pIC50: −log10 of the molar value.
value.kind: pIC50

Examples with answers:
| compound | value.kind | value.measured |
| --- | --- | --- |
| Cc1cccc(O)c1C(=O)C1=CCCN2CCC[C@H]12 | pIC50 | 5.56 |
| Cc1cccc2c1C(=O)[C@H]1[C@H](CCN3CCC[C@H]13)O2 | pIC50 | 4.87 |

[1] Cc1cccc2c1C(=O)C1[C@H]3CCCN3CC[C@H]1O2 (some centres undefined)
[2] Cc1cccc(O)c1C(=O)[C@@H]1[C@H]2CCCN2CC[C@@H]1O
Lowest pIC50? choose 1 or 2 Selection: enter the item's label.
1
(1: 4.06, 2: 4.45)
